These entries and their values trace back to PubChem BioAssay (EPA / NIEHS).

read-out: ABC Transporter (ABCB1), ABCB1 (gene 5243); experiment: LTEA_HepaRG_ABCB1: Life Technologies and Expression Analysis (LTEA) Assay for ABC Transporter (ABCB1) using HepaRG (AID 2283460); settings: mRNA level, 48 h; actives raise or lower the signal
Activity calls are given as the source filed them. How the source made its calls: active means hit-call score of the fitted dose curve at least 0.9, where 1 is the maximum; inactive means score below 0.9.
Tick one outcome: t for active, f for inactive

compound | cat
CC[C@H](C)[C@@H](C(=O)O)n1sc2ccccc2c1=O | f
O=C(O)Cc1cc(I)c(Oc2cc(I)c(O)c(I)c2)c(I)c1 | f
CC(C)CCCCCCOC(=O)CCCCC(=O)OCCCCCCC(C)C | f
C[C@@H]1C[C@H]2[C@@H]3CCC4=CC(=O)C=C[C@]4(C)[C@@]3(F)[C@@H](O)C[C@]2(C)[C@@]1(O)C(=O)COP(=O)(O)O | f
COCC(C)OCC(C)O (stereo not given) | f
C#C[C@]1(O)CC[C@H]2[C@@H]3CCC4=CC(=O)CC[C@@H]4[C@H]3CC[C@@]21C | t
CC(=O)CC(C)(C)O | f
c1ccc2c(c1)Cc1ccccc1-2 | f

Q: For "Cc1cc(CCN2CCN(c3nsc4ccccc34)CC2)cc2c1NC(=O)CC2(C)C" , which call appears in the assay record?
Ans: t

Q: For "Oc1cccc(O)c1" , which call appears in the assay record?
Ans: f

Q: For "OCCC(F)(F)C(F)(F)C(F)(F)C(F)(F)C(F)(F)C(F)(F)F" , which call appears in the assay record?
Ans: f
